# MEASUREMENT DESCRIPTION: qHTS assay to identify small molecule antagonists of the estrogen receptor alpha (ER-alpha) signaling pathway using the BG1 cell line - cell viability counter screen (AID 743081);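 further: compound given together with 17beta-estradiol as the ER stimulus; on the % scale 0 is the no-effect control and ±100 the full control effect; nearly all actives have a fitted effect of over 45% in size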
# ASSAY CONDITIONS: BG1Luc4E2 viability, CellTiter-Fluor, 22 h; series mostly up to 70.3 µM
Records with an inconclusive call do not appear. Activity calls are given as the source filed them. The call rests on the fitted dose curve; in most records, active means well fitted cell-killing curve with a large enough effect in the repeat runs; inconclusive means weak or mixed curves, or effect the other way; inactive means flat fitted curve, though single readings scatter.
OBSERVABLE: outcome

Below: 10 compounds and their reported outcome.
{"columns": ["COMPOUND", "outcome"],
 "data": [
  ["O=S(=O)(O)C(F)(F)F", "inactive"],
  ["CC1(C)O[C@@H]2C[C@H]3[C@@H]4CCC5=CC(=O)CC[C@]5(C)[C@@]4(F)[C@@H](O)C[C@]3(C)[C@]2(C(=O)CCl)O1", "inactive"],
  ["O=c1oc2c(O)c(O)cc3c(=O)oc4c(O)c(O)cc1c4c23", "inactive"],
  ["CN1CCN(c2c(F)cc3c(=O)c(C(=O)O)cn4c3c2SCC4)CC1", "inactive"],
  ["c1ccc(CN(CC2=NCCN2)c2ccccc2)cc1", "inactive"],
  ["O=Cc1ccc(F)c(Br)c1", "inactive"],
  ["CCOc1ccc2nc(N)sc2c1", "inactive"],
  ["CN1CCN(C2=Nc3cc(F)ccc3Cc3ccccc32)CC1", "inactive"],
  ["CNCCC(Oc1ccccc1OC)c1ccccc1 (stereo unspecified)", "inactive"],
  ["O=CCCc1ccccc1", "inactive"]
]}

For CCNCCO , what is its reported outcome?
inactive

* * *

# SYSTEM: Nuclear receptor subfamily 1 group I member 2 (Homo sapiens)
# MEASUREMENT DESCRIPTION: Human pregnane X receptor (PXR) small molecule agonists, qHTS assay (AID 1346982); further: nearly all actives have a fitted effect of over 35% in size; on activation: on the % scale 0 is the no-effect control and ±100 the full control effect
# ASSAY CONDITIONS: PXR-Luc HepG2, CYP3A4 luciferase reporter, 24 h; series mostly up to 92.4 µM
Records with an inconclusive call do not appear. Activity calls are given as the source filed them. Calls come from the whole dose curve; as a rule, active = well fitted activation curve with a large enough effect in the repeat runs; inconclusive = weak or mixed curves; inactive = no such curve, though single readings can be large or run the other way.
Bench note: report the call from active, inactive

Hi, sorry to bother you, what did the test record for Clc1cccc(-c2cc(Cl)cc(Cl)c2)c1 ?
active

// same read-out, input: CCC(=O)c1ccc2c(c1)N(CCCN(C)C)c1ccccc1S2
inactive

Follow-up entry: CC(C)(C)c1cccc(O)c1
inactive

One more compound: O=C1CCCCCCCCCCC(=O)OCCO1
inactive

Here is the next compound: CCNCCO
inactive

Then what about the compound CN(C)CCOc1ccccc1Cc1ccccc1 ?
inactive

# repeat for Cc1ccc(C(C)C)cc1O
inactive

What would you report for O=C(CCCl)NCc1ccccc1 ?
inactive

* * *

# MEASUREMENT DESCRIPTION: qHTS RealTime-Glo MT Cell Viability Assay in HepG2 cells - 16 hour (AID 1224885); further: on the % scale 0 is the no-effect control and ±100 the full control effect; nearly all actives have a fitted effect of over 50% in size
# ASSAY CONDITIONS: RealTime-Glo luminescence; series mostly up to 76.8 µM
# Excerpt: U.S. Tox21 Program National Center for Advancing Translational Sciences [NCATS] NIH Chemical Genomics Center [NCGC] U.S. Environmental Protection Agency [EPA] National Institutes of Environmental Health Sciences [NIEHS] National Toxicology Program [NTP] U.S. Food and Drug Administration [FDA] Tox21 Assay Overview: Measure of cell viability is critical in the cell-base assay. Analysis of cell viability is necessary for the characterization of cell responses to cytotoxic drugs and environmental stress. […]
Inconclusive results are not listed. Calls of active or inactive are those of the source. Calls follow the shape of the dose curve; as a rule, active = well fitted cell-killing curve with a large enough effect in the repeat runs; inconclusive = weak or mixed curves; inactive = flat fitted curve, though single readings scatter.
OBSERVABLE: activity change, negative = cytotoxic

{"columns": ["COMPOUND", "OBSERVABLE", "MEASURED VALUE"],
 "data": [
  ["O=C(Cl)c1cccc([N+](=O)[O-])c1", "activity change, negative = cytotoxic", "inactive"],
  ["CCCNC(C)C(=O)Nc1c(C)csc1C(=O)OC (stereo not drawn)", "activity change, negative = cytotoxic", "inactive"],
  ["Cc1ncc(CO)c(CN)c1O", "activity change, negative = cytotoxic", "inactive"],
  ["CN(C)CC[C@@H](c1ccc(Cl)cc1)c1ccccn1", "activity change, negative = cytotoxic", "inactive"],
  ["CN(CC1(C)CCCO1)S(=O)(=O)c1ccc(Cl)c(S(N)(=O)=O)c1 (stereo not drawn)", "activity change, negative = cytotoxic", "inactive"],
  ["C=Cc1ccccc1", "activity change, negative = cytotoxic", "inactive"]
]}

Return reported activity change, negative = cytotoxic; argument: CC(C)CCCCCCc1ccc(OCCOCCO)cc1
inactive

Ok, now COC(=O)C(C)O (stereo not drawn)
inactive

* * *

# MEASUREMENT DESCRIPTION: qHTS assay to test for compound auto fluorescence at 460 nm (blue) in HEK293 cells (AID 720678); further: on the % scale 0 is the no-effect control and ±100 the full control effect
# ASSAY CONDITIONS: blue autofluorescence 405/460 nm; series mostly up to 91.3 µM
Activity calls are given as the source filed them. The call rests on the fitted dose curve; in most records, active means well fitted curve in the direction sought with a large enough effect in the repeat runs; inconclusive means weak or mixed curves; inactive means flat fitted curve, though single readings scatter.
OBSERVABLE: fluorescence, % of triamterene

Previously resolved entries follow.
{"columns": ["COMPOUND", "MEASURED VALUE"],
 "data": [
  ["CC1(C)C(=O)N(Cl)C(=O)N1Br", "inactive"],
  ["CC(CNC1CCCCC1)OC(=O)c1ccccc1 (configuration not stated)", "0.0231% [at 18.6 µM] (inactive)"],
  ["OCCN1CCN(CCO)CC1", "inactive"],
  ["O=C(C(Cl)Cl)N1CCOC12CCCCC2", "inactive"]
]}

Which fluorescence, % of triamterene value is on record for O=C1CCCc2ccccc21 ?
inactive

* * *

# MEASUREMENT DESCRIPTION: qHTS assay to identify small molecule agonists of the sonic hedgehog signaling (Shh) pathway - cell viability counter screen (AID 1259366); further: on the % scale 0 is the no-effect control and ±100 the full control effect; nearly all actives have a fitted effect of over 50% in size
# ASSAY CONDITIONS: NIH/3T3 Gli1-Luc viability, CellTiter-Fluor, 24 h; series mostly up to 92.4 µM
Records with an inconclusive call do not appear. Activity calls are given as the source filed them. Calls come from the whole dose curve; as a rule, active = well fitted cell-killing curve with a large enough effect in the repeat runs; inconclusive = weak or mixed curves, or effect the other way; inactive = flat fitted curve, though single readings scatter.
OBSERVABLE: viability change, negative = cytotoxic

Example entries and their recorded answers appear below.
{"columns": ["COMPOUND", "viability change, negative = cytotoxic"],
 "data": [
  ["C1CSCCS1", "inactive"],
  ["CC(C)NCC(O)COc1ccc(CCOCC2CC2)cc1 (stereo not given)", "inactive"],
  ["Cc1cc2nc(N)sc2cc1C", "inactive"],
  ["O=C(O)CN(CCN(CC(=O)O)CC(=O)O)CCN(CC(=O)O)CC(=O)O", "-18.4% [at 19 µM] (inactive)"]
]}

Now for the compound whose viability change, negative = cytotoxic we want.
Record request: viability change, negative = cytotoxic value, item C=C(C)C(=O)OCCOP(=O)(O)O
inactive

* * *

# MEASUREMENT DESCRIPTION: qHTS assay to identify small molecule antagonists of the vitamin D receptor (VDR) signaling pathway - cell viability counter screen (AID 743225); further: on the % scale 0 is the no-effect control and ±100 the full control effect; nearly all actives have a fitted effect of over 50% in size
# ASSAY CONDITIONS: VDR-bla HEK293T viability, CellTiter-Glo luminescence, 16 h; series mostly up to 61 µM
# Text: U.S. Tox21 Program National Center for Advancing Translational Sciences [NCATS] NIH Chemical Genomics Center [NCGC] U.S. Environmental Protection Agency [EPA] National Institutes of Environmental Health Sciences [NIEHS] National Toxicology Program [NTP] U.S. Food and Drug Administration [FDA] Tox21 Assay Overview: The vitamin D receptor (VDR), a member of nuclear hormone receptor superfamily, plays a critical role in calcium homeostasis and bone metabolism. […]
Records with an inconclusive call do not appear. Activity calls are given as the source filed them. Calls follow the shape of the dose curve; as a rule, active = well fitted cell-killing curve with a large enough effect in the repeat runs; inconclusive = weak or mixed curves, or effect the other way; inactive = no such curve, though single readings can be large or run the other way.
OBSERVABLE: viability change, negative = cytotoxic

Worked cases, answers included:
{"columns": ["STRUCTURE", "viability change, negative = cytotoxic"],
 "data": [
  ["CCOC(=O)NCCC[Si](OCC)(OCC)OCC", "inactive"],
  ["O=C(CC(=O)C(F)(F)F)c1ccccc1", "inactive"],
  ["CC(C)OC(C)C", "inactive"],
  ["CCc1cc(Cl)c(OC)c(C(=O)NC[C@@H]2CCCN2CC)c1O", "inactive"],
  ["CC(=O)OC(C)OC(C)=O", "inactive"],
  ["NCCC(O)(P(=O)(O)O)P(=O)(O)O", "inactive"],
  ["Cc1ccc(C=O)s1", "inactive"]
]}

Let us examine a further case.
Please give the measured viability change, negative = cytotoxic for this compound: C=Cc1ccccc1
inactive

* * *

# MEASUREMENT DESCRIPTION: qHTS assay to identify small molecule agonists of the vitamin D receptor (VDR) signaling pathway - cell viability counter screen (AID 743224); further: on the % scale 0 is the no-effect control and ±100 the full control effect; nearly all actives have a fitted effect of over 50% in size
# ASSAY CONDITIONS: VDR-bla HEK293T viability, CellTiter-Glo luminescence, 16 h; series mostly up to 62.6 µM
Records with an inconclusive call do not appear. Calls of active or inactive are those of the source. The call rests on the fitted dose curve; in most records, active means well fitted cell-killing curve with a large enough effect in the repeat runs; inconclusive means weak or mixed curves, or effect the other way; inactive means no such curve, though single readings can be large or run the other way.
OBSERVABLE: activity change, negative = cytotoxicity

{"columns": ["COMPOUND", "activity change, negative = cytotoxicity"],
 "data": [
  ["O=S(=O)(O)C(F)(F)F", "inactive"],
  ["C=CCc1cc(OC)c(O)c(C(=O)NCCO)c1", "inactive"],
  ["OCc1ccccc1O", "inactive"],
  ["Cc1nc(-c2ccccn2)ncc1C(=O)Nn1cc(C)c2cc(F)ccc21", "inactive"],
  ["Cc1c(-c2ccccc2)oc2c(C(=O)OCCN3CCCCC3)cccc2c1=O", "inactive"]
]}

What value of measured activity change, negative = cytotoxicity is listed for O=C1Nc2ccc([N+](=O)[O-])cc2C1=O ?
inactive

Try O=Cc1ccc(F)c(Br)c1 next.
inactive

Further, for CCNCCO ?
inactive

Field entry: COC(=O)c1ccc(OC)cc1
inactive

Follow-up item: CCCNC(C)C(=O)Nc1c(C)csc1C(=O)OC (stereo unspecified)
inactive

Data provenance: PubChem BioAssay (Tox21)
